All values here come from the Kinase Knowledgebase extract (Sharma et al. 2016).

Can you tell me IC50 for the items I'm about to list?
# experimental system: EGFR (human), P00533 [WT]
# Sequence (P00533 whole entry, looked up): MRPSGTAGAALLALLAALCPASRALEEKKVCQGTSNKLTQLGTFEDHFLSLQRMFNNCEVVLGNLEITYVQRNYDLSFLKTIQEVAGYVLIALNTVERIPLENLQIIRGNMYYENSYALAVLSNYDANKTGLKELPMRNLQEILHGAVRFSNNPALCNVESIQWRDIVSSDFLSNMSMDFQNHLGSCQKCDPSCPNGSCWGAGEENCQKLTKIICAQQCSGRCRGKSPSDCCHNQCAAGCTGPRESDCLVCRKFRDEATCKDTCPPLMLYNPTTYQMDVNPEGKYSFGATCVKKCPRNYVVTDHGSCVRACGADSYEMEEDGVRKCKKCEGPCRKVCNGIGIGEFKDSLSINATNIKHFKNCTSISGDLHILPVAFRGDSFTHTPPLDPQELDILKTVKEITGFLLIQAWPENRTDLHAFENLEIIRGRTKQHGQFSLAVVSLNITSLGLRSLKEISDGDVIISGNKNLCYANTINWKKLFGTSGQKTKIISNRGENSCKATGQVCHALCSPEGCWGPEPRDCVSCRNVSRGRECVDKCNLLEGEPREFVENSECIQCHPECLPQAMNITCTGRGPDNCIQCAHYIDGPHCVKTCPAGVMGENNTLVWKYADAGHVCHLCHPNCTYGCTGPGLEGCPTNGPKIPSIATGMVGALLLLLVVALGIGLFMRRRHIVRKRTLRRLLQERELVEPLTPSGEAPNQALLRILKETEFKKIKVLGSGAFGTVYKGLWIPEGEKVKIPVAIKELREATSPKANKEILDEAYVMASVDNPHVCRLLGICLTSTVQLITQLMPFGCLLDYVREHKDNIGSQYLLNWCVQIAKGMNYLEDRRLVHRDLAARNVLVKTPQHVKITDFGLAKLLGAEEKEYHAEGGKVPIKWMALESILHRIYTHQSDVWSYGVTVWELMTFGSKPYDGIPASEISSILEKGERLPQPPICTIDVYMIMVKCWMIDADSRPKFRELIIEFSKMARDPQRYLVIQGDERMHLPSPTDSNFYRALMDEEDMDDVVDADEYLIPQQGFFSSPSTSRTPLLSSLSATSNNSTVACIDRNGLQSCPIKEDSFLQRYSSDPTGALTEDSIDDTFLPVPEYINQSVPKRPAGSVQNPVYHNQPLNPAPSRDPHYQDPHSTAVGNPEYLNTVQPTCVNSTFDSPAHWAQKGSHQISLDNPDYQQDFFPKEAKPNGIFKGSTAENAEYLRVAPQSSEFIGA

Example entries and their recorded answers appear below.
Q) Form field: reported IC50 of CC(=O)OC/C=C/C(=O)N1CCc2c(sc3ncnc(N[C@H](C)c4ccccc4)c23)C1
A) < 59 nM

Q) Now this one: C=CC(=O)N1CCc2c(sc3ncnc(N[C@H](CO)Cc4ccccc4)c23)C1
A) < 59 nM

Q) Now this one: C=CC(=O)Nc1cccc(-c2c(-c3ccccc3)oc3ncnc(N[C@H](C)c4ccccc4)c23)c1
A) 101 to 900 nM

Quick batch: IC50 for everything below.
1. C=CC(=O)N1CCc2c(sc3ncnc(N[C@H](CO)c4ccccc4)c23)C1
2. C[C@@H](Nc1ncnc2sc3c(c12)CCN(C(=O)/C=C/CN(CCO)CCO)C3)c1ccccc1
3. CCN(CC)C/C=C/C(=O)N1CCc2c(sc3ncnc(N[C@H](CCO)c4ccccc4)c23)C1
4. CC(=O)Nc1ccc(-c2c(-c3ccccc3)oc3ncnc(N[C@H](CO)c4ccccc4)c23)cc1
5. CN(C)C/C=C/C(=O)N1CCc2c(sc3ncnc(N[C@H](COCc4ccncc4)c4ccccc4)c23)C1
6. C=CC(=O)N1CCc2c(sc3ncnc(N[C@H](CCO)c4ccccc4)c23)C1
7. OC[C@@H](Nc1ncnc2oc(-c3ccccc3)c(-c3ccoc3)c12)c1ccccc1
8. C[C@@H](Nc1ncnc2sc3c(c12)CCN(C(=O)/C=C/CN(C)CCO)C3)c1ccccc1

A)
1. < 59 nM
2. < 59 nM
3. < 59 nM
4. 60 to 100 nM
5. < 59 nM
6. < 59 nM
7. 101 to 900 nM
8. < 59 nM

Quick batch: IC50 for everything below.
1. O=C(O)[C@@H](Nc1ncnc2oc(-c3ccccc3)c(Br)c12)c1ccccc1
2. CN(C)C/C=C/C(=O)N1CCc2c(sc3ncnc(N[C@H](COCc4ccccn4)c4ccccc4)c23)C1
3. CC(C)NC/C=C/C(=O)N1CCc2c(sc3ncnc(N[C@H](C)c4ccccc4)c23)C1

A)
["< 59 nM", "< 59 nM", "101 to 900 nM"]

Quick batch: IC50 for everything below.
1. C=CC(=O)N1CCc2c(sc3ncnc(N[C@H](COCc4cccc(OC)c4)c4ccccc4)c23)C1
2. OC[C@@H](Nc1ncnc2oc(-c3ccccc3)c(Cl)c12)c1ccccc1
3. CN(C)C/C=C/C(=O)N1CCc2c(sc3ncnc(N[C@H](COCc4ccc(F)cc4)c4ccccc4)c23)C1
4. CC[C@@H](Nc1ncnc2sc3c(c12)CCN(C(=O)/C=C/CN(CC)CC)C3)c1ccccc1
5. C=CC(=O)N1CCc2c(sc3ncnc(N[C@H](C)c4ccccc4)c23)C1
6. CC#CC(=O)Nc1cccc(-c2c(-c3ccccc3)oc3ncnc(N[C@H](COC)c4ccccc4)c23)c1
7. COCCN(C)C/C=C/C(=O)N1CCc2c(sc3ncnc(N[C@H](CO)c4ccccc4)c23)C1

A)
1: < 59 nM; 2: 101 to 900 nM; 3: < 59 nM; 4: < 59 nM; 5: < 59 nM; 6: 101 to 900 nM; 7: < 59 nM

Quick batch: IC50 for everything below.
1. C=CC(=O)Nc1cccc(-c2coc3ncnc(N[C@H](CO)c4ccccc4)c23)c1
2. CCN(C/C=C/C(=O)N1CCc2c(sc3ncnc(N[C@H](C)c4ccccc4)c23)C1)CCO
3. O=C(O)[C@@H](Nc1ncnc2sc3c(c12)CCC3)c1ccccc1
4. C=CC(=O)N1CCc2c(sc3ncnc(N[C@H](COC)c4ccccc4)c23)C1
5. C=CC(=O)N1CCc2c(sc3ncnc(N[C@@H](CCO)c4ccccc4)c23)C1

A)
60 to 100 nM
< 59 nM
101 to 900 nM
< 59 nM
101 to 900 nM

Quick batch: IC50 for everything below.
1. CNC/C=C/C(=O)N1CCc2c(sc3ncnc(N[C@H](C)c4ccccc4)c23)C1
2. CC[C@@H](Nc1ncnc2sc3c(c12)CCCC3)c1ccccc1

A)
1. < 59 nM
2. 101 to 900 nM

Quick batch: IC50 for everything below.
1. COc1ccc(-c2oc3ncnc(N[C@H](CO)c4ccccc4)c3c2-c2ccc(OC)cc2)cc1
2. O=C(O)/C=C\C(=O)N1CCc2c(sc3ncnc(N[C@H](CO)c4ccccc4)c23)C1
3. C=CC(=O)Nc1cccc(-c2c(-c3ccccc3)oc3ncnc(N(C)[C@H](COC)c4ccccc4)c23)c1
4. CCN(CC)C/C=C/C(=O)N1CCc2c(sc3ncnc(N[C@H](CO)c4ccccc4)c23)C1

A)
["60 to 100 nM", "101 to 900 nM", "101 to 900 nM", "< 59 nM"]
